The reported numbers originate from paper doi:10.1101/2025.05.30.657074.

Target: OR1_S60A (Bombyx mori, UniProt Q5WA61, S60A)
Sequence (Q5WA61 entry or part of it S60A, one chain of several): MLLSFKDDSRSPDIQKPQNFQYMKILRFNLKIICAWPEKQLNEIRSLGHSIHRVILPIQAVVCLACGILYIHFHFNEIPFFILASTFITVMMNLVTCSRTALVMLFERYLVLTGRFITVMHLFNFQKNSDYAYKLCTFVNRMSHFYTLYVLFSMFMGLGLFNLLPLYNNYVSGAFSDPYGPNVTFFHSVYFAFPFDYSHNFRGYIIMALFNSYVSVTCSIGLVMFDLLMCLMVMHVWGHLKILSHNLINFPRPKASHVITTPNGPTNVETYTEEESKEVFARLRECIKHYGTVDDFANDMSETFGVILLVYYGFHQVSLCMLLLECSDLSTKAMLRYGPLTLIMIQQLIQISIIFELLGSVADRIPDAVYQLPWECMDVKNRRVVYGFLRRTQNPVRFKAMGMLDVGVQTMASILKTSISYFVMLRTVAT
Assay: GCaMP6 calcium flux assay, BmOR1/Orco mutant S60A
measuredAttribute: pEC50
Keep it numeric: pEC50 is minus log10 of the concentration in mol/L.

What value of measured pEC50 is listed for CCC/C=C\C=C\CCCCCCCCCO ?
6.30

* * *

Biological target: BmOR1/Orco (Bombyx mori, UniProt Q5WA61)
Sequence (Q7YT34 entry or part of it): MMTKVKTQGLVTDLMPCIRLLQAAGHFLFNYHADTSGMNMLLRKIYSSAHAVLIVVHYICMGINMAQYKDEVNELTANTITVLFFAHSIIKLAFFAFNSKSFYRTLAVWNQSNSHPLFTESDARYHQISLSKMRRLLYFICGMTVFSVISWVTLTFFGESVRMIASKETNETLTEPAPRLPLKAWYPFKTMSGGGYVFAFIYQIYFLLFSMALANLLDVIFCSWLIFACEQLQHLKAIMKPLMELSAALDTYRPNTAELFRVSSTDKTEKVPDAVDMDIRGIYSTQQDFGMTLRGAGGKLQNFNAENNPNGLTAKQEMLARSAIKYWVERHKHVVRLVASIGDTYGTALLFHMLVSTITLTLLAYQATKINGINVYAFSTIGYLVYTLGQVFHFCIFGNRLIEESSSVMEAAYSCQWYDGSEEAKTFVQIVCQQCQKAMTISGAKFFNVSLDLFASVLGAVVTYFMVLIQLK
Sequence (Q5WA61 entry or part of it): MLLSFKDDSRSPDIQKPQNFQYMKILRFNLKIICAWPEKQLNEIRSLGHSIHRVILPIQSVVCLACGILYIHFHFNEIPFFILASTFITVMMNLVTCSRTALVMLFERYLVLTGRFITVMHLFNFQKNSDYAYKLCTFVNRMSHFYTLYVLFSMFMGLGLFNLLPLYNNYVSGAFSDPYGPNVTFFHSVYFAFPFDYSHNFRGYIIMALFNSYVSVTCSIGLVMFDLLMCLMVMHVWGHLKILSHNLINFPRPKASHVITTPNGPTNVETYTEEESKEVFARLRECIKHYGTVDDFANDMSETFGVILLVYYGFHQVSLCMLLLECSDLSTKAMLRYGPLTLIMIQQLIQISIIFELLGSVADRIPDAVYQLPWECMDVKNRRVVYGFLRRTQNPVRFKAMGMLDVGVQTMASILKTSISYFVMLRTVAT
Assay: GCaMP6 calcium flux assay, wild-type BmOR1/Orco
Format: cell-based
Conditions: Mean (-log EC50 ± SE), wild-type BmOR1/Orco
EC50 values by entry

molecule="CCC/C=C\\C=C\\CCCCCCCCC=O [Bombykal, bombykal]" measuredtarget="BmOR1/Orco (Bombyx mori, UniProt Q5WA61)" measuredattribute=EC50 endpointvalue="3020 nM"

Field: next molecule
What value of measured EC50 is listed for CCC/C=C\C=C\CCCCCCCCCO [Bombykol, bombykol] ?
269 nM
